# Tested on: OVCAR-8
# Measurement Notes: NCI tumour cell line growth inhibition, 48 h
The source made the active and inactive calls. No stated cut-off is given here; in the data, active = GI50 up to about 1.1 µM and inactive = higher.
Respond only with the outcome that fits, drawn from TRUE (active), FALSE (inactive)

# outcome recorded in this test, key = Brc1ccccc1C1SCc2nc3ccccc3n21 (stereo not drawn)
FALSE

What call does the record list for CN(C)C(=O)c1ccc([N+](=O)[O-])cc1 ?
FALSE

Record request — test call for Cn1c(N=[N+]=[N-])cc(=O)n(C)c1=O
FALSE

# outcome recorded in this test, key = NC(Cc1c2ccccc2cc2ccccc12)C(=O)O (stereo not drawn)
FALSE

// param item: COC1=CC(=O)N(C(=O)C2CSC(C(CO)NC(=O)c3csc(/C=N/O)n3)=N2)C1 (stereo not drawn) ; yields the recorded call
FALSE

Recorded test call requested for COc1cc2nc(NCCCCCNC(=O)c3ccco3)nc(N)c2cc1OC
FALSE

# outcome recorded in this test, key = Cc1cc(O)cc2oc(=O)c3c(O)cc(O)cc3c12
FALSE

Tell me the recorded outcome of this test for COc1c2ccoc2nc2c(OC)c(OCC(O)C(C)(C)O)ccc12 (stereo not drawn) .
FALSE

For COC1=C(C)C(=O)c2c(c(COC(N)=O)c3n2CC2C3N2C)C1=O (stereo not drawn) , which call appears in the assay record?
TRUE

Tell me the assay call for O=C(CC1C=Cc2ccccc2N1C(=O)c1ccccc1)c1ccccc1 (stereo not drawn) please.
FALSE

Per the assay record, what outcome was assigned to C[C@@H]1C[C@]2(C[C@@H](C)C3[C@@H](CC4(C)[C@@H]5CCC6C(C)(C)OC(=O)C=C[C@]67C[C@@]5(CC[C@]34C)OO7)O2)OC1=O (stereo partly drawn) ?
FALSE

// return assay outcome for Cc1ccc(SCC(CF)OCn2cc(F)c(=O)[nH]c2=O)cc1 (stereo not drawn)
FALSE

Outcome logged for Cc1ccc(S(=O)(=O)OCC23CCC(C2)C2CC23)cc1 (stereo not drawn) in this assay:
FALSE

----------
Provide the reported GI50 of each item.
# Tested on: SK-MEL-5
# Measurement Notes: NCI tumour cell line growth inhibition, 48 h
The source made the active and inactive calls. Rule as the data show it: active = GI50 up to about 1.1 µM and inactive = higher.

The compound CCOC(=O)C1=CNC(C(=O)OCC)C1c1cccn1-c1ccc(Cl)cc1[N+](=O)[O-] (stereo not given) showed GI50 equal to 16.6 µM (inactive)

Entry C[C@@H]1C[C@]2(C[C@@H](C)C3[C@@H](CC4(C)[C@@H]5CCC6C(C)(C)OC(=O)C=C[C@]67C[C@@]5(CC[C@]34C)OO7)O2)OC1=O (stereo not given in full) , GI50 reported as 37.9 µM (inactive)

Entry Nc1ncnc2c1ncc(=O)n2C1CC(O)C(CO)O1 (stereo not given) — recorded GI50 = > 100 µM (inactive)

Quick note, GI50 for COC1=C(C)C(=O)c2c(c(COC(N)=O)c3n2CC2C3N2C)C1=O (stereo not given) landed at 0.0209 µM (active)

Lookup result for CC(=O)Nc1ccc2nncnc2c1 ; measured GI50: > 100 µM (inactive)

----------
# Test system: DMS-273
# Measurement Notes: NCI tumour cell line growth inhibition, 48 h
Activity calls are given as the source filed them. No stated cut-off is given here; in the data, active = GI50 up to about 1.1 µM and inactive = higher.
Measured Attribute: GI50

GI50 for Cc1ccc(NC(=O)c2cc3cc(/N=N/c4ccccc4C(=O)O)ccc3oc2=O)cc1 is 37.4 µM (inactive)

Just so you know, measured GI50 for N=C(c1ccccc1)N1CCCCC1 came out at > 100 µM (inactive)

GI50 measured on CCC(C)CNC1=C(NC(C)=O)C(=O)c2ccccc2C1=O (configuration not stated) = > 100 µM (inactive)

Briefly, GI50 measured for C#CCNC(=O)N(CC#C)N=O : > 100 µM (inactive)

Form: compound = CCCCCCCCC(=O)N(C)C1C2CN3CCC(O2)C13 (configuration not stated) ; GI50 = > 100 µM (inactive)

The recorded GI50 for entry C/C(Cc1ccccc1)=N\NC(N)=S equals > 100 µM (inactive)

GI50 recorded for this compound, O=S(=O)(O)c1ccc(/N=N\c2ccc(/N=N\c3ccc(/C=C/c4ccc(/N=[N+](/[O-])c5ccc(/C=C/c6ccc(/N=N/c7ccc(/N=N\c8ccc(S(=O)(=O)O)cc8)cc7)cc6S(=O)(=O)O)c(S(=O)(=O)O)c5)cc4S(=O)(=O)O)c(S(=O)(=O)O)c3)cc2)cc1 , is > 100 µM (inactive)

Per the records, this compound ( COC(=O)CC[C@]12C[C@]13CC[C@]1(C)C4C(C)C[C@]5(CC(C)C(=O)O5)OC4CC1(C)C3CCC2C(C)(C)O (some centres not stated) ) has GI50 equal to 32.7 µM (inactive)

Reported GI50 ( Cc1cc(O)cc2oc(=O)c3c(O)cc(O)cc3c12 [ALTERNARIOL] ) = 23 µM (inactive)

# compound CN(C)c1ccc(/C=C(\C#N)C(=O)c2ccccc2)cc1Br ; its GI50 = > 100 µM (inactive)

// CC(C)(C)c1ccccc1NS(=O)(=O)c1ccccc1 : GI50 value = > 100 µM (inactive)

OC1CCSc2ccccc21 (configuration not stated) yielded GI50 of > 100 µM (inactive)

----------
# Test system: UO-31
# Measurement Notes: NCI tumour cell line growth inhibition, 48 h
The source made the active and inactive calls. No stated cut-off is given here; in the data, active = GI50 up to about 1.1 µM and inactive = higher.
# valid calls are active, inactive; nothing else

Please indicate how the test categorized C[C@]12C=CC(=O)C=C1[C@@H](F)C[C@H]1[C@@H]3CC[C@](O)(C(=O)CO)[C@@]3(C)C[C@H](O)[C@@]12F .
inactive

Recorded test call requested for Cc1ccc2c(/C=C/c3ccc(N(C)C)cc3)ccc(C(C)C)cc1-2
inactive

For CC(=O)OCCCOCn1c(Cc2ccccc2)c(C)c(=O)[nH]c1=O , which call appears in the assay record?
inactive

# outcome recorded in this test, key = O=C(O)c1cn2c3c(cc(N4CCN(CCO)CC4)cc3c1=O)SCC2
inactive

Hey, what did the test say about COC(=O)c1c2c(cc3c1CC1(C3)Cc3cc4c(c(C(=O)OC)c3C1)CCCC4)CCCC2 ?
active

----------
Give measured GI50 for each item. Keep answers brief.
# Tested on: OVCAR-3
# Measurement Notes: NCI tumour cell line growth inhibition, 48 h
Activity calls are given as the source filed them. Cut-off read from the data, not from the text of the source: active = GI50 up to about 1.1 µM and inactive = higher.

So for Cc1oc2ccccc2c(=O)c1Cn1nnc2ccccc21 , the logged GI50 turned out to be 30.6 µM (inactive)

What the record says about O=C1OC(=O)C(=C\c2ccc3c(c2)OCO3)/C1=C/c1ccc2c(c1)OCO2 : GI50 is > 100 µM (inactive)

Query CC(=O)O/N=C/c1ncccc1CO yields GI50 of > 100 µM (inactive)

The reported value for COC(=O)c1ccccc1Nc1ccccc1C(=O)OC in terms of GI50 is 79.6 µM (inactive)

Data point: O=c1[nH]c(-c2ccccc2)nc2ccc(Cl)cc12 ; GI50 = 31 µM (inactive)

// O=c1[nH]c2ccc(CC(=S)N3CCN(c4ccccc4)CC3)cc2o1 : GI50 value = > 100 µM (inactive)

----------
# Test system: ACHN
# Measurement Notes: NCI tumour cell line growth inhibition, 48 h
The source made the active and inactive calls. Cut-off read from the data, not from the text of the source: active = GI50 up to about 1.1 µM and inactive = higher.
Measured Attribute: GI50

Given item OC(c1cccnc1Cl)c1nc2ccccc2c2ccnc(Cl)c12 (stereo not given) , the value recorded as its GI50 is 9.91 µM (inactive)

Recorded result, CCOC(=O)c1cc2cc([N+](=O)[O-])ccc2oc1=O , GI50: > 100 µM (inactive)

Value of GI50 reported for the compound CCn1c(-c2cc3ccccc3cc2OC(C)=O)n[nH]c1=S is 35.8 µM (inactive)

Entry NC(=O)C1Cc2cc3c(cc21)OCO3 (stereo not given) , GI50 reported as > 100 µM (inactive)

Value of GI50 reported for the compound c1ccc2c(c1)N=C(NC1CCCCC1)CCN2 is > 100 µM (inactive)

----------
# System: HT-29
# Measurement Notes: NCI tumour cell line growth inhibition, 48 h
Activity calls are given as the source filed them. Rule as the data show it: active = GI50 up to about 1.1 µM and inactive = higher.
Measured Attribute: GI50

Input O=S(=O)(c1ccccc1)C1CC(c2nc3ccccc3[nH]2)=NO1 (stereo unspecified) . Output GI50: > 100 µM (inactive)

Consider O=C1N(c2ccccc2)N=C2c3ccncc3C3=NN(c4ccccc4)C(=O)C123 (stereo unspecified) . Its measured GI50 is > 39.6 µM (inactive)

// recorded GI50 for O=C(N/C=C1\C(=O)Oc2ccccc2C1=O)NC1CCCCC1 : > 100 µM (inactive)

Reported GI50 ( c1ccc2c(c1)SCCCS2 ) = > 100 µM (inactive)

Short answer for COCCCNC(=O)C1C(=O)N(CCCOC)C(=O)/C1=N\N (stereo unspecified) : GI50 was > 100 µM (inactive)

Given item C=CC[C@@]1(C)CCCCCCCCC[C@@](C)(CC=C)C1=O , the value recorded as its GI50 is 18.7 µM (inactive)

Sample c1ccc2c(c1)NC1(N3CCCCC3)CCCCC21 (stereo unspecified) ; GI50 observed: 39.4 µM (inactive)

Measured GI50 of NC1NCCC(=O)N1CCc1c[nH]c2ccccc12 (stereo unspecified) : 27.2 µM (inactive)

Looking up CN(C)c1ccc(/C=C(\C#N)C(=O)c2ccccc2)cc1Br , I see its GI50 listed as > 100 µM (inactive)

Summary for this compound, Nc1ccc2c(=S)c3ccccc3[nH]c2c1 : GI50 is 19.3 µM (inactive)

Data point: COC(=O)CC[C@]12C[C@]13CC[C@]1(C)C4C(C)C[C@]5(CC(C)C(=O)O5)OC4CC1(C)C3CCC2C(C)(C)O (stereo partly specified) ; GI50 = > 100 µM (inactive)

GI50 reported for this compound N#Cc1c(-c2ccccc2)[nH]c2ccccc2c1=O : > 100 µM (inactive)

# compound COc1cc(O)c2c(c1)C(=O)c1cc3c(c(O)c1C2=O)C(OC1OC(C)C(O)C(O)C1OC)C(OC)C(C)(O)C3=O (stereo unspecified) ; its GI50 = 1.17 µM (inactive)

# GI50 of Cc1csc2nc(-c3cc([N+](=O)[O-])c(Cl)cc3Cl)c(/C=N/N=C(N)N)n12 = 16.1 µM (inactive)

The compound listed as C=C1C(=O)OC2/C=C(\C(=O)O)CC/C=C(\C)CC(OC(=O)/C=C(\C)CC)C12 (stereo unspecified) shows GI50 equal to 15.7 µM (inactive)

For reference, reported GI50 for CC12O[C@H](c3ccccc3)[C@H](c3ccccc3)N1C(=O)C1(C(=O)OCc3ccccc3)CC12 (stereo partly specified) stands at 76 µM (inactive)

GI50 in this record for CC(C)(Cc1ccccc1)Cc1cc(O)ccc1O : 20.6 µM (inactive)

// recorded GI50 for C#CC(O)/C=C/C(O)CCCC(O)CC#CC(O)C#CCCCCC(O)/C=C/CCCCCC(=O)CCCCCCCCCCCCCC(O)C(O)C#CC(=O)O (stereo unspecified) : > 25 µM (inactive)

response.value for N#CCCN(CCC#N)c1ccc(/C=C2\N=C(COc3ccc(Cl)cc3Cl)OC2=O)cc1 (field: GI50) = > 100 µM (inactive)

Briefly, GI50 measured for CCOC1NC(=O)c2ccccc21 (stereo unspecified) : > 100 µM (inactive)

The value of GI50 measured for the compound O=C1/C(=C\c2cccc(Oc3ccccc3)c2)SC(c2ccccc2)N1Cc1ccccc1 (stereo unspecified) turned out to be 20.2 µM (inactive)

Lab note: O=[N+]([O-])c1ccccc1/C=N/C12CC3CC(CC(C3)C1)C2 gave GI50 of 34.3 µM (inactive)

Kindly note the recorded GI50 for COC(=O)[C@H](CCSC)NC(=O)c1ccc(CNC(=O)/C(C)=C/c2ccccc2)cc1 , which is 21 µM (inactive)

Recorded GI50 (compound OCC(Cn1cncn1)(c1ccc(F)cc1F)n1cncn1 (stereo unspecified) ): > 100 µM (inactive)

The compound CCOc1ccc(-c2nc(-c3oc4ccccc4c(=O)c3OC(C)=O)cs2)cc1 showed GI50 equal to > 10 µM (inactive)

GI50 in this record for O=C(NC1=NC2C=CC([N+](=O)[O-])=CC2S1)C(=O)Nn1c(S)nc2ccccc2c1=O (stereo unspecified) : > 100 µM (inactive)

Query O=S(=O)(O)c1ccc2c(/N=N\c3cccc4ccccc34)c(O)c(S(=O)(=O)O)cc2c1 yields GI50 of > 100 µM (inactive)

Notebook: Cn1c2ccccc2n2c(=O)c(-c3ccc(Cl)cc3)nnc12 , GI50 read as > 100 µM (inactive)

Per the record, O=S(=O)(O)c1ccc(/N=N\c2ccc(/N=N\c3ccc(/C=C/c4ccc(/N=[N+](/[O-])c5ccc(/C=C/c6ccc(/N=N/c7ccc(/N=N\c8ccc(S(=O)(=O)O)cc8)cc7)cc6S(=O)(=O)O)c(S(=O)(=O)O)c5)cc4S(=O)(=O)O)c(S(=O)(=O)O)c3)cc2)cc1 has GI50 of > 100 µM (inactive)

Per the records, this compound ( C/C(C=O)=N\Nc1cc(C)c2ccccc2n1 ) has GI50 equal to 16.7 µM (inactive)

Form: compound = CC1=NN(c2ccccc2Cl)C2(C1)SCC(=O)N2c1nc2ccccc2s1 (stereo unspecified) ; GI50 = > 100 µM (inactive)

Notebook: CN1CC2=C(N=C(S)NC2c2ccccc2)/C(=C/c2ccccc2)C1 (stereo unspecified) , GI50 read as 27 µM (inactive)

Note to self: GI50 recorded for O=C1CCCCC/C1=C\c1ccc(F)cc1 was > 100 µM (inactive)

Memo: Cc1c(C#N)c2nnn(-c3cccc(Cl)c3)c(=O)n2c1-c1ccccc1 , reported GI50: 1.28 µM (inactive)

Value of GI50 reported for the compound Fc1ccccc1C1CC(c2ccc3ccccc3c2)=Nc2ccccc2S1 (stereo unspecified) is > 100 µM (inactive)

response.value for OC(c1cccnc1Cl)c1nc2ccccc2c2ccnc(Cl)c12 (stereo unspecified) (field: GI50) = 4.6 µM (inactive)

GI50 in this record for C=C1CC(O)C2C(=C)C(=O)OC2C2C(C)C(=O)CC12 (stereo unspecified) : 18.7 µM (inactive)

Please fill in: GI50 reported for C[C@@H]1CCC2[C@@H](C)C(=O)O[C@@H]3C4C[C@@H]1[C@@]23OO[C@@]4(C)O (stereo partly specified) = > 100 µM (inactive)

response.value for CCOC(=O)c1c(NC(=O)Nc2ccccc2)c(C(N)=O)c2n1CCCCC2 (field: GI50) = > 100 µM (inactive)

For record C[n+]1c2ccccc2n2c3ccccc3c(NCCCn3ccnc3)c(C#N)c21 the listed GI50 is 3.31 µM (inactive)

Consider CC(C)(C)c1ccccc1NS(=O)(=O)c1ccccc1 . Its measured GI50 is 66.7 µM (inactive)
